Reference source for all entries: patent US11207296B2

# tested on: UniProt:P23025
# Sequence (P23025 whole entry): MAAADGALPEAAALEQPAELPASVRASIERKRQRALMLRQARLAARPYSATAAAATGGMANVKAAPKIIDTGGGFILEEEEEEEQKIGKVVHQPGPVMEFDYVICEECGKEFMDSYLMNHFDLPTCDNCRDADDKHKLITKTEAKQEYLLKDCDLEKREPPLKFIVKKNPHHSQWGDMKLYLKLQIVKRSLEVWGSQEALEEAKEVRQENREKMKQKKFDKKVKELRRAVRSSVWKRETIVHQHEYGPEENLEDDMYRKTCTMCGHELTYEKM
# method description: biochemical;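 note: XPA expressed in Sf9 cells, preincubated with compound on ice before adding DNA, complex resolved on native polyacrylamide gel at 4 °C, PhosphorImager band intensity, binding inhibition versus DMSO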
# condition label: IC50 (μM), EMSA, 32P labeled 30 bp duplex DNA containing a single 1,2 dGpG cisplatin adduct, several values in a cell = separate determinations
quantity kind: IC50 (µM)

Take a look at these entries with their results.
compound | units symbol | IC50
COc1cccc(NC(=O)c2cc(-c3ccc(CC4C(=O)N(c5cccc(C(=O)O)c5)N=C4C(F)(F)F)o3)ccc2Cl)c1 (centres unmarked) | µM | 30
CC1=NN(c2cccc(C(=O)O)c2)C(=O)/C1=C\c1ccc(-c2ccc(Cl)c(C(=O)COc3ccccc3Cl)c2)o1 | µM | 2.5

a: CC1=NN(c2cccc(C(=O)O)c2)C(=O)/C1=C\c1ccc(-c2cccc(C(=O)OC(C)C)c2)o1
b: COc1cccc(NC(=O)c2cc(-c3ccc(CC4C(=O)N(c5ccc(C(=O)O)cc5)N=C4C)s3)ccc2Cl)c1 (centres unmarked)
c: COc1cccc(NC(=O)c2cc(-c3ccc(/C=C4\C(=O)N(c5ccc(C(=O)O)cc5)N=C4C)s3)ccc2Cl)c1
Query: Please list these in order of increasing IC50. Thank you! Your reply should list the labels following the order given in the request.
Reply: a, c, b
(a: 3 µM, c: 12 µM, b: 45 µM)
